Each entry below lists one item and its recorded growth inhibition value.
Test: NCI Yeast Anticancer Drug Screen. Data for the mlh1 rad18 strain (AID 175)
Conditions: S. cerevisiae mlh1 rad18 strain growth inhibition; at 50.0 µM; stronger effect = higher value
Compounds without any hit were thinned out: in the full panel of roughly 79,000, 15% have a hit.
quantity: growth inhibition (%)

>>> assayvalue("COCCCNc1ccc([N+](=O)[O-])cn1")
-14.4
>>> assayvalue("CNc1nc(SC)nc2[nH]ncc12")
2.05
>>> assayvalue("NC1(C(=O)OCc2ccccc2)CCCC1")
37.9
>>> assayvalue("CC(C)[Si]1(C(C)C)N([Si](C)(C)F)[Si](C(C)C)(C(C)C)N1[Si](C)(C)F")
26.2
>>> assayvalue("CCCCNC(=O)/N=C/c1c(O)c2ccccc2oc1=O")
-16.6
>>> assayvalue("CN1C(NC(=O)C(C)(C)O)C(C)(C)C(C)(C)C1NC(=O)C(C)(C)O (stereo unspecified)")
29.6

###

Test: NCI Yeast Anticancer Drug Screen. Data for the cln2 rad14 strain (AID 165);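 note: 0% = growth equal to vehicle treated cultures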
Conditions: S. cerevisiae cln2 rad14 strain, at 50.0 µM, stronger effect = higher value
Description: Growth inhibition of yeast strains with defined genetic alterations is measured as a screen for potential anti-cancer activity. Selected strains with alterations in DNA damage repair or cell cycle control were exposed to compounds and growth inhibition was measured relative to vehicle treated controls. The strain used in this assay is cln2 rad14
About 79,000 compounds went through this panel and 15% of them were active in at least one assay; those are over-represented in the sample as a whole. Where a SMILES comes first, the peptide text is derived from it. [ ]: non-standard residue; d: D form. The star is where a group is joined. ξ: configuration not given here. NMeY = CN[C@@H](Cc1ccc(O)cc1)C(=O)O; Cbz = O=C(OCc1ccccc1)*; ξA = CC(N)C(=O)O
quantity: growth inhibition (%)

>>> assayvalue("C=CCNC(=S)Nc1cc(Cl)ccc1OC")
-5.45
>>> assayvalue("N#Cc1cccc(N2C(=O)C3C4C=CC(C3C2=O)C2C(=O)N(c3cccc(C#N)c3)C(=O)C42)c1 (stereo not drawn)")
26.6
>>> assayvalue("OC1(c2ccc(-c3ccc(-c4ccc(C5(O)C(c6ccccc6)=C(c6ccccc6)C(c6ccccc6)=C5c5ccccc5)cc4)cc3)cc2)C(c2ccccc2)=C(c2ccccc2)C(c2ccccc2)=C1c1ccccc1")
-3.9
>>> assayvalue("CCC[C@H](C)[C@H]1NC(=O)[C@@H](NC(=O)[C@@H](CC(C)C)N(C)C(=O)C2CCCN2C(=O)[C@H](C)O)[C@@H](C)OC(=O)[C@H](CC(C)C)N(C)C(=O)[C@@H]2CCCN2C(=O)[C@H](CC(C)C)NC(=O)[C@@H](C)C(=O)[C@H](C(C)C)OC(=O)C[C@@H]1O (stereo partly drawn)")
26.3
>>> assayvalue("COc1ccc(C[C@@H](C(=O)N[C@@H](C)C(N)=O)N(C)C(=O)[C@@H]2CCCN2C(=O)[C@H](CC(C)C)NC(=O)C(C)NC(=O)OCc2ccccc2)cc1 (stereo partly drawn) (Cbz-[ξA]LP[NMeY](Me)A-NH2)")
-4
>>> assayvalue("O=C(c1cccc(C(=O)N(c2ccccc2)C2CCCCC2)c1)N(c1ccccc1)C1CCCCC1")
-6.65
>>> assayvalue("CCOC(=N)CC(=O)Nc1ccccc1CC")
4.05
>>> assayvalue("O=C1CN(Cc2ccccc2)CCO1")
0.9
